# measured on: AKR1C4 (Homo sapiens, UniProt P17516)
# Construct: gift of the Penning lab (University of Pennsylvania School of Medicine)
# Sequence (P17516 1-323): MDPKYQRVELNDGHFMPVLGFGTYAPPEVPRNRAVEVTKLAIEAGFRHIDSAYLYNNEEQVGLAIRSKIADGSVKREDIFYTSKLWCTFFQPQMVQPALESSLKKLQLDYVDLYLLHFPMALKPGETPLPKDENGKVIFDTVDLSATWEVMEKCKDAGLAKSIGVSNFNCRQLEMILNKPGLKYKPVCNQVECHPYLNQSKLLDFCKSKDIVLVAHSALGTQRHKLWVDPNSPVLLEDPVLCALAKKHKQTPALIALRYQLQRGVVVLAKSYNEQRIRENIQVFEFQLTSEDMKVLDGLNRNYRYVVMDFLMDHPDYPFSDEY
# assay text: Steady state kinetic parameters of fluorogenic substrates with purified AKR1C isozymes
# Format: biochemical
# applied conditions: isozyme 1C4; potassium phosphate buffer pH 6, NADPH, fluorimetric
quantity measured: Kcat

>>> obs_value("CC(=O)c1cc(=O)oc2cc(N(C)C)ccc12")
"0.035 s⁻¹"
>>> obs_value("CC(=O)c1cc(=O)oc2c3c4c(cc12)CCCN4CCC3 [drawing 207]")
"0.00633 s⁻¹"
>>> obs_value("O=C(c1ccccc1)c1cc(=O)oc2c3c4c(cc12)CCCN4CCC3 [drawing 210]")
"0.0103 s⁻¹"
>>> obs_value("CC(=O)c1cc(=O)oc2c3c(ccc12)NCCC3")
"0.0233 s⁻¹"
